Data provenance is patent US20220324865A1.

- measurementTarget: human EP3 receptor (Homo sapiens)
- Construct: expressed in transfected cells; host or cells: CHO K1 (Chinese Hamster Ovary), stably co-transfected with Galpha16 and mitochondrial clytin
- assayInfo: Cellular in vitro assay for determining EP3 receptor activity (human EP3 cell line, sulprostone-stimulated calcium luminescence)
- Format: cell-based
- conditionDescription: CHO cells expressing human EP3 and mitochondrial Clytin; antagonist mode, sulprostone at EC50; read-out: EP3 CHO mtCLY ANTAG IC50
propertyLabel: log10 IC50 (log10 of the value in nM)
Please be aware that the numbers have been log10-transformed from IC50 in nM.

Recorded results for 6 compounds are shown here.
>>> print(df.to_string())
                                   compound                  measurementtarget  propertylabel  reportedvalue
0  O=C(N[C@H](CN1CC(F)(F)C1)c1ccccc1)c1cc2c(=O)[nH]c(-c3ccc4ccccc4c3)cn2n1 [6-544]  human EP3 receptor (Homo sapiens)     log10 IC50           0.22
1  Cc1ccc(-c2cn3nc(C(=O)NCCC(O)C(F)(F)F)c(C4CC4)c3c(=O)[nH]2)cc1F (racemic) [6-366]  human EP3 receptor (Homo sapiens)     log10 IC50           0.34
2  CN1CCC(NC(=O)c2nn3cc(-c4ccc5ccccc5c4)[nH]c(=O)c3c2C(F)(F)F)(c2ccc(F)cc2)C1 (racemic) [6-510]  human EP3 receptor (Homo sapiens)     log10 IC50           0.93
3  Cc1cc(-c2cn3nc(C(=O)N[C@@H](c4ccc(F)cc4)C(C)(C)O)c(C4CC4)c3c(=O)[nH]2)c(F)cc1Cl [6-594]  human EP3 receptor (Homo sapiens)     log10 IC50          -0.34
4  Cc1ccc(-c2cn3nc(C(=O)N[C@H](C)C(C)C)c(C4CC4)c3c(=O)[nH]2)cc1C [Example 1-143]  human EP3 receptor (Homo sapiens)     log10 IC50           0.18
5  Cc1ccc(-c2cn3nc(C(=O)NC(c4ccc(F)cc4)C4(O)CC4)c(C4CC4)c3c(=O)[nH]2)cc1F (single isomer, unassigned) [6-383]  human EP3 receptor (Homo sapiens)     log10 IC50           0.20

Prompt: What value of log10 IC50 has been reported for the following compound? Cc1ccc(-c2cn3nc(C(=O)N[C@@H](c4ccc(F)cc4)C(C)(C)O)c(C(F)(F)F)c3c(=O)[nH]2)cc1Cl [Example 1-151]
Response: 0.06

====

- measurementTarget: human EP3 receptor (Homo sapiens, UniProt P43115)
- Sequence (P43115 whole entry): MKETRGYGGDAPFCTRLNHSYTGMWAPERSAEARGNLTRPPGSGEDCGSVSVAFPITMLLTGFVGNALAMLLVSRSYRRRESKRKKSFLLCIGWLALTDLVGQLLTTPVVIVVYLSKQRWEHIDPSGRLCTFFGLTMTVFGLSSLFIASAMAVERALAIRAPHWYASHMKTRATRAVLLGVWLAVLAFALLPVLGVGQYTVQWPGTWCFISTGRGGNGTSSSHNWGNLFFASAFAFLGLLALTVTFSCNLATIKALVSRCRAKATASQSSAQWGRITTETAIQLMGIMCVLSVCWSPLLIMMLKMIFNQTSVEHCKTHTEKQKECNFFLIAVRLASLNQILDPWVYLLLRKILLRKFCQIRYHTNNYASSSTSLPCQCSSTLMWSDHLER
- assayInfo: Cellular in vitro assay for determining EP3 receptor activity (human EP3 cell line, sulprostone-stimulated calcium luminescence)
- conditionDescription: CHO cells expressing human EP3 and mitochondrial Clytin; antagonist mode, sulprostone at EC50; read-out: EP3 CHO mtCLY ANTAG IC50
For each of the compounds below, state its pIC50.
One number for each entry, as −log10 of the molar value.

In [3]: df
Out[3]:
                                   compound                         measurementtarget  reportedvalue
0  COC[C@H](NC(=O)c1nn2cc(-c3ccc(C)c(Cl)c3)[nH]c(=O)c2c1C1CC1)c1ccccc1  human EP3 receptor (Homo sapiens, UniProt P43115)           8.39
1  CCN(CCO)CC(NC(=O)c1nn2cc(-c3ccc4ccccc4c3)[nH]c(=O)c2c1C1CC1)c1ccccc1 (stereo not shown)  human EP3 receptor (Homo sapiens, UniProt P43115)           8.85
2  COc1ccc(C(C)NC(=O)c2nn3cc(-c4cnc5cccc(C)c5c4)[nH]c(=O)c3c2C(C)C)cc1 (stereo not shown)  human EP3 receptor (Homo sapiens, UniProt P43115)           8.94
3  COc1cc(-c2cn3nc(C(=O)N[C@@H](c4ccc(F)cc4)C(F)(F)CO)c(C4CC4)c3c(=O)[nH]2)ccc1Cl  human EP3 receptor (Homo sapiens, UniProt P43115)           8.68
4  Cc1cc(-c2cn3nc(C(=O)NC4(c5ccc(F)cc5)CN(CC(F)F)C4)c(C4CC4)c3c(=O)[nH]2)ccc1Cl  human EP3 receptor (Homo sapiens, UniProt P43115)           8.99

Parameters: items (list). Returns: pIC50 for each item.
1. N#Cc1c(C(=O)NC2(c3ccccc3)CC2)nn2cc(-c3ccc4ccccc4c3)[nH]c(=O)c12
2. O=C(NC1CCN(C2CC2)C1)c1nn2cc(-c3ccc4ccccc4c3)[nH]c(=O)c2c1C(F)(F)F (single isomer, unassigned) [6-501]

Response:
1. 8.87
2. 8.24
